- ASSAY_TARGET: Angiotensin Converting Enzyme (ACE) (UniProt P12822)
- Sequence (P12822 whole entry): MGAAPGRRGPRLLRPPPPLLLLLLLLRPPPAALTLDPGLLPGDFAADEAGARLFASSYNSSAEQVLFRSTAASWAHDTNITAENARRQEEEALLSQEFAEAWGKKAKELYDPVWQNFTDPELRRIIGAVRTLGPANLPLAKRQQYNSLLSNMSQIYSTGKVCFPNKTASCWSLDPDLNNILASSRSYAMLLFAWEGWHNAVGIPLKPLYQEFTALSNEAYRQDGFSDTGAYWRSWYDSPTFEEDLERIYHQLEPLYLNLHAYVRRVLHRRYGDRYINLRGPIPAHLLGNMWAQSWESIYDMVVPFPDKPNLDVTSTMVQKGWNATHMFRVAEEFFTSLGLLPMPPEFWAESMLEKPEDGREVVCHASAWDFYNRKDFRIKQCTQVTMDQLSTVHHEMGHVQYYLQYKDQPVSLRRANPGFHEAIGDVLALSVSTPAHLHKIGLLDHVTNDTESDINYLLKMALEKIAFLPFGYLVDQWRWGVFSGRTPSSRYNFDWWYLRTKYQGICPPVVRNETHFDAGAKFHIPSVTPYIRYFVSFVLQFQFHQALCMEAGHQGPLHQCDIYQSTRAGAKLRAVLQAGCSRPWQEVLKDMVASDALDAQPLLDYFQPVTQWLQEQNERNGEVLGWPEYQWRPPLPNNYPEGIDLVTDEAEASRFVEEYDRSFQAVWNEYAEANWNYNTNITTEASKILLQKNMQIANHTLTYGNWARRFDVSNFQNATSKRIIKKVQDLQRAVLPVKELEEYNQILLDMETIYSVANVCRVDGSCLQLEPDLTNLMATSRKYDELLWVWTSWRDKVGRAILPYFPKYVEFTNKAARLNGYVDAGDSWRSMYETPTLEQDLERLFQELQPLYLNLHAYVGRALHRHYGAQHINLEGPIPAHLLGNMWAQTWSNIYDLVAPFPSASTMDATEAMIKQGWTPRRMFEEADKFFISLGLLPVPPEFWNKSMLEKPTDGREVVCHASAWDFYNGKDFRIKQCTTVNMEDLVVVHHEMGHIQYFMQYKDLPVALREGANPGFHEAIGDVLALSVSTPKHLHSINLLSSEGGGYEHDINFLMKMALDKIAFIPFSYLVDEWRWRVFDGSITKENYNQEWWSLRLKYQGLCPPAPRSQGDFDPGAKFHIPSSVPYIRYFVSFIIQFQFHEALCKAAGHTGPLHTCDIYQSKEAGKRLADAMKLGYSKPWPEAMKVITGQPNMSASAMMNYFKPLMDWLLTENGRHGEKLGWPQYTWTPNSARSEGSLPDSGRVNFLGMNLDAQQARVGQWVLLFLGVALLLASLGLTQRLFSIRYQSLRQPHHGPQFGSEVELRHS
- MEASUREMENT_NOTES: fluorimetric ACE assay with HHL substrate, 96-well format
- Assay type: biochemical
- ASSAY_CONDITIONS: from plot of fluorescence counts against concentration (FIG. 13); read-out: IC50 value, initially found
pIC50: −log10 of the molar value.
PROPERTY_LABEL: pIC50

[ask] Can you look up the measured pIC50 of O=C(O)C1CCCN1C(=O)CCCCC(S)CCS (stereo not shown) for me?
[reply] ~4.54
